assay.info: Toxicity liver stage against HepG2, at 10uM
Format: cell-based
Set-up: test concentration 10 uM, cell line HepG2-A16-CD81EGFP
recorded.conditions: human, HepG2-A16-CD81EGFP cells; read-out: INHIBITION

compound	cytotoxicity at 10 µM (%)
CN(CCCc1nccn1C)c1nccc(N2CCC(O)C2)n1 (stereo not drawn)	10.2
O=C1NCCCCC1NC(=O)C1(c2ccccc2)CCOCC1 (stereo not drawn)	-14.2
CN1CCN(C2CCN(CC(O)c3ccccc3F)CC2)C1=O (stereo not drawn)	-0.275
Cc1cccc(OCCNC(=O)CN2CCCC2c2noc(C)n2)c1 (stereo not drawn)	-8.6
CNC(=O)C(C)NC(=O)c1ccc(Oc2cccnc2)cc1 (stereo not drawn)	6.32
COCCNCc1ccc(OCC(=O)NC(C)(C)C)cc1	-8.08
CCC(CNC(=O)c1ccc(C(N)=O)cc1)Oc1cccc(F)c1 (stereo not drawn)	-39.5
CCC(NC1CCCC1)c1ccc(S(C)(=O)=O)cc1 (stereo not drawn)	-3.37
COc1nc2c(cc1C(=O)NCCc1nc(C)c(C(=O)O)s1)CCC2	13.3
O=C(Nc1cc(C(F)(F)F)c[nH]c1=O)C1CCCN1 (stereo not drawn)	-7.33
CCOc1ccccc1OC1CCN(C(=O)c2cc[nH]n2)CC1	-4.53
CCn1cc(S(=O)(=O)N2CCCC2c2ccc(C)o2)cn1 (stereo not drawn)	20.9
CC(=O)N[C@@H](C)C(=O)NCc1cccnc1Oc1ccccc1F	-3.53
CCOCC1CN(C(=O)[C@H]2CCCO2)Cc2nnn(CC3CC3)c21 (stereo partly drawn)	-1.99
Cc1cnc(C(=O)N2Cc3ncn(C)c3C(COCC(C)C)C2)cn1 (stereo not drawn)	-112
CC(C)(C)c1nc(CN2CCCC2c2nnc3ccccn23)no1 (stereo not drawn)	-1.99
CCc1nc(N2CCN(c3ncccc3C#N)CC2)c2cnn(C)c2n1	10.8
COCc1cc(NCCCSc2nnc(C)s2)ncn1	11.6
CCCS(=O)(=O)NCc1nc(C)cc(N2CCCC2)n1	8.09
COCC1COCCC12CCN(Cc1cccs1)CC2 (stereo not drawn)	6.13
Cn1cc(NC(=O)c2ccccn2)cc(Cl)c1=O	7.7
Cc1nn(C)c2ncnc(N(C)CC3CCN(CC(C)C)C3)c12 (stereo not drawn)	-5.79
N#CCCCOc1cccnc1NC(=O)Cc1ccccc1F	-2.27
Cc1ccc(C(=O)N(C)CC(=O)Nc2cccc(C)n2)cn1	-21.2
CN(Cc1csc(-c2cccs2)n1)C(=O)CCn1ccccc1=O	22.7
CN(Cc1nnc(C2CC2)o1)C1CCN(CCc2cccs2)C1 (stereo not drawn)	-2.01
O=C(NCC1(O)CCC1)c1cccc(-n2cccn2)c1	-2.44
Cc1nc(C)n(CC2CCCN2Cc2cn3ccccc3c2C#N)n1 (stereo not drawn)	2.8
CCCc1n[nH]c(C2CN(C(=O)c3n[nH]c4ccccc34)CCO2)n1 (stereo not drawn)	-1.39
O=C(CC1CCN(CCN2CCCCC2)CC1)N1CCOCC1	-3.91
O=C(Nc1ccccc1)c1n[nH]c(-n2cnnc2)n1	9.37
Cc1cnn(CC2CCCN2Cc2noc(C(C)(C)C)n2)c1 (stereo not drawn)	-10.7
CC1c2ncc(COCC3CCOCC3)n2CCN1C(=O)c1ccco1 (stereo not drawn)	-0.882
COc1cc(NC(=O)c2ccc(C)c(F)c2)c(C(=O)N(C)C)cc1OC	2.82
CS(=O)(=O)C1(C(=O)NC2CCc3nccn3C2)CCCC1 (stereo not drawn)	-14
Cc1ccc2c(c1)c(C)cc(=O)n2CCC#N	5.81
CNS(=O)(=O)c1csc(C(=O)N(C)Cc2sccc2C)c1	16.4
Cn1ccc(C2CCCCN2C(=O)c2cccc(Cn3cccn3)c2)n1 (stereo not drawn)	8.04
CC(C)c1nnc(C2CCN(CC(=O)Nc3cccnc3)CC2)o1	-5.92
O=C(CCn1ccnc1)N1CCCC(n2cncn2)C1 (stereo not drawn)	0.0383
CC(C)Cn1c(=O)[nH]c2cn(-c3ccc(F)cc3)c(=O)n21	8.2
O=C(CN1CCOC(Cn2cccn2)C1)NCc1ccco1 (stereo not drawn)	-14.6
CC[C@@H](Cn1ncc2ccccc2c1=O)NC(=O)c1cnc(C)cn1	7.92
CS(=O)(=O)NC1CCCN(C(=O)Nc2cccnc2)C1 (stereo not drawn)	-14.2
COCCNC(=O)C[C@@H]1COC[C@H]2CN(C(=O)COC)C[C@@H]12	-96.5
O=C(Cc1ccccc1)N1CCOC(c2nc(-c3ncccn3)no2)C1 (stereo not drawn)	-22.6
O=C(c1cnccn1)N1CCC(F)(F)C2(CCN(c3ccccn3)C2)C1 (stereo not drawn)	11.9
c1cnc(NC[C@@H]2CCC[C@@H]3CN(Cc4csnn4)C[C@@H]32)nc1	-126

====

cytotoxicity at 10 µM values for the compounds below.
assay.info: Toxicity liver stage against HepG2, at 10uM
Format: cell-based
Set-up: test concentration 10 uM, cell line HepG2-A16-CD81EGFP
recorded.conditions: human, HepG2-A16-CD81EGFP cells; read-out: INHIBITION
parameter.measured: cytotoxicity at 10 µM (%)

compound	obs.value
CC(C)CCN(C)C(=O)c1cnc2c(cnn2CC(C)C)c1	-0.0554
CC(Cc1ccco1)NC(=O)Nc1ccc(N(C)C)nc1 (centres undefined)	-7.22
O=C(NCCOc1ccc(Cl)cn1)NCCc1ccccn1	7.95
FC1(F)CCN(Cc2ccccn2)CC12CCN(c1ncccn1)C2 (centres undefined)	-95.8
COc1cccc(COCC(=O)NC2CCN(CC(N)=O)CC2)c1	-8.47
c1cncc(O[C@H]2COCCN(CC3CC3)C2)c1	3.38
Fc1cccc(N2CCCC3(CN(Cc4nccs4)CCO3)C2)c1 (centres undefined)	-58.2
CCCN1CCC(CC(=O)NCc2cc(C)nn2C)CC1	-12.4
CN(Cc1ccsc1)C(=O)c1cc2c([nH]c1=O)CCCC2=O	-6.88
OCCN1CCc2[nH]nc(C(c3ccccc3)c3ccccc3)c2C1	-2.98
O=C(NCc1nnc2ccccn12)N1CCc2sccc2C1	-1.25
COc1ccc2c(c1)OCC(CNC(=O)c1cnc(O)cn1)C2 (centres undefined)	-1.09
Cn1cc(N2C[C@@H]3CN(Cc4ccccn4)C[C@@H]3C2=O)cn1	-95.6
O=C(Nc1ccncc1)C1=NN(c2ccccc2)C(=O)CN1	2.76
CO[C@@H]1CC[C@H]2[C@H]1OCCN2C(=O)COc1ccc(F)cc1	4.42
O=C(NCc1ccc(OCC2CC2)nc1)C1COc2ccccc2O1 (centres undefined)	0.0616
Cc1ccc(C(=O)N2CCN(C(=O)C(C)n3ccnc3)CC2)cc1F (centres undefined)	3.72
Cc1ccc(S(=O)(=O)NC(=O)C2(c3ccc(F)cc3)CCC2)c(C)c1	-1.09
COCC(NC(=O)c1ccoc1)c1ccc(C)o1 (centres undefined)	3.6
Cc1nn(C)c2nc(-c3ccccn3)nc(NCCC3CCCN3C)c12 (centres undefined)	1.91
CCc1ncnc2c1CCN(S(=O)(=O)CC)CC2	-105
CC[C@@]1(O)CCN(C(=O)c2ccoc2)C[C@H]1O	4.63
CC(C)NC(=O)N1CCN(S(=O)(=O)C2CC2)CC2(CNC(=O)C2)C1 (centres undefined)	1
COC(=O)CNC(=O)CSCc1nc(O)c2c(C)c(C)sc2n1	0.562

====

assay.info: Toxicity liver stage against HepG2, at 10uM
Format: cell-based
Design: test concentration 10 uM, cell line HepG2-A16-CD81EGFP
recorded.conditions: human, HepG2-A16-CD81EGFP cells; read-out: INHIBITION

molecule	uom	cytotoxicity at 10 µM
O=C(c1cc(Br)c[nH]1)N1CCN(Cc2ccco2)CC1	%	-64.2
O=C(c1ccc(Br)o1)N1CCN(Cc2ccc(OC(F)(F)F)cc2)CC1	%	21.7
Cc1nn(C)c2ncc(NC(=O)N3CCCCCC3)cc12	%	4.87
Fc1ccc(OC2CCN(CCn3cncn3)CC2)cc1	%	-5.92
CCc1cnc(NCC(c2ccncc2)N2CCOCC2)nc1 (configuration not stated)	%	8.71
COCC(=O)NCCn1ccc2c(OC)cccc21	%	3.07
Cc1cc(C)nc(N2CCCC2c2cccnc2)n1 (configuration not stated)	%	0.997
CC(C)c1nccc(-c2nccn2CCS(C)(=O)=O)n1	%	4.68
O=c1[nH]c(COc2ccccc2Cl)nc2c1CCNC2	%	1.97
Cc1cnc(CN2CCCC2c2noc(C(C)C)n2)cn1 (configuration not stated)	%	-15.1
COc1cccc(C(NCc2ccc(SC)cc2)c2nccn2C)c1 (configuration not stated)	%	-5.54
CN(CCNC(=O)Nc1cnn(C)c1)Cc1ccc(F)cc1	%	7.72

====

assay.info: Toxicity liver stage against HepG2, at 10uM
Format: cell-based
Set-up: test concentration 10 uM, cell line HepG2-A16-CD81EGFP
recorded.conditions: human, HepG2-A16-CD81EGFP cells; read-out: INHIBITION
# cytotoxicity at 10 µM per record follows

molecule	cytotoxicity at 10 µM [%]
CC(C)C(=O)N1CCN(C(=O)c2cc(C(C)C)no2)[C@H]2CS(=O)(=O)C[C@H]21	-9.43
CC(NC(=O)C1CCCCC1)c1cc(O)nc(-c2cccnc2)n1 (stereo unspecified)	5.84
CC(C)N1CCOC(c2ccnc(N(C)C)n2)C1 (stereo unspecified)	-0.104
Cn1c(-c2cccs2)nn(CCNS(=O)(=O)c2ccccc2Cl)c1=O	-9.48
Cc1nc(C2CCCN2C(=O)c2cc3c(s2)CCCC3)no1 (stereo unspecified)	-11.2
Cc1nc(C2CCNCC2)cc(N2CCOc3ccccc3C2)n1	-2.3
CC(C)CC(=O)N1CCC2(CC1)OC(C(N)=O)Cn1ccnc12 (stereo unspecified)	-105
CN(Cc1nccs1)C1CCN(c2cccc(-c3cscn3)c2)CC1	-1.26
CC(C)CN1CC2(CCN(C(=O)c3cn4cccnc4n3)CC2)CC1=O	-6.84
Cc1cc(C(=O)NCC2CCCC2)c(C)n1-c1cccnc1	5.69
CC(C)(C)OC(=O)N1CCC[C@H](NCC2=CCCOC2)C1	-6.93
